Consider the following molecules and their measured IC50 readings.
# tgt: STING WT: His-TVMV-S-hSTING(155-341)-H232R (Homo sapiens, UniProt Q86WV6, H232R)
# Construct: STING WT: His-TVMV-S-hSTING(155-341)-H232R
# Sequence (Q86WV6 with tags, fused parts or gaps H232R): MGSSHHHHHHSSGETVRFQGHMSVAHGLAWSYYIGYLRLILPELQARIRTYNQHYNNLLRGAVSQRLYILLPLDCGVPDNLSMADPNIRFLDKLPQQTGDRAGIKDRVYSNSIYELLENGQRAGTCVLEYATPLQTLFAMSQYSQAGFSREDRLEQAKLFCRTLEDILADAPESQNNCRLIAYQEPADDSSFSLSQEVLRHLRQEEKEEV
# procedure.text: STING HTRF Binding Assay, STING WT
# condition.details: 20 nM His-tagged STING cytoplasmic domain, 200 nM fluorescein-labeled cGAMP analog probe, one hour; read-out: HTRF Binding Assays IC50 (μM) STING WT
Field: numeric (µM). Do not append units.

>  <molecule>
NC(=O)c1cc([C@@H]2O[C@@H]3COP(=O)(S)O[C@H]4[C@@H](F)[C@H](n5cnc6c(N)ncnc65)O[C@@H]4COP(=O)(S)O[C@H]3[C@H]2O)[nH]n1 (single isomer, unassigned) [Example 6-1]

>  <unit.spec>
µM

>  <IC50>
5.58

$$$$
>  <molecule>
Nc1ncnc2c1ncn2[C@@H]1O[C@@H]2COP(=O)(S)O[C@H]3[C@@H](O)[C@H](n4cnc5c(=O)[nH]c6nccn6c54)O[C@@H]3COP(=O)(S)O[C@H]2[C@H]1F (mixture of isomers)

>  <unit.spec>
µM

>  <IC50>
0.004

$$$$
>  <molecule>
Nc1ncnc2c1ncn2[C@@H]1O[C@@H]2COP(=O)(O)O[C@H]3[C@@H](F)[C@H](n4cnc5c4ncn4ccnc54)O[C@@H]3COP(=O)(O)O[C@H]2[C@H]1O

>  <unit.spec>
µM

>  <IC50>
0.04

$$$$
>  <molecule>
Nc1ncnc2c1ncn2[C@@H]1O[C@@H]2COP(=O)(O)O[C@H]3[C@@H](F)[C@H](n4cnc5c4ncn4ccnc54)O[C@@H]3COP(=O)(O)O[C@H]2[C@H]1F

>  <unit.spec>
µM

>  <IC50>
0.04

$$$$

Now consider the entry below.
Record NC(=O)c1cc([C@@H]2O[C@@H]3COP(=O)(S)O[C@H]4[C@@H](F)[C@H](n5cnc6c(N)ncnc65)O[C@@H]4COP(=O)(S)O[C@H]3[C@H]2O)[nH]n1 (single isomer, unassigned) [Example 6-4] . Reported IC50: 3.03

Cited source for all entries: patent US11660311B2
